Test system: LOX IMVI melanoma
method: NCI tumour cell line growth inhibition, 48 h
Reported GI50 values follow for various compounds

These solved cases illustrate the format of a correct answer.
Checklist item: GI50 tested on LOX IMVI melanoma, entry CC(C)(C)OC(=O)CN1CCc2c(sc3ncnc(N/N=C/c4cccc5ccccc45)c23)C1 , value?
1720 nM

Checklist item: GI50 tested on LOX IMVI melanoma, entry O=C(Nc1cccc(O)c1)c1cccc(NC2=C(Cl)C(=O)N(Cc3ccccc3)C2=O)c1 , value?
11100 nM

Checklist item: GI50 tested on LOX IMVI melanoma, entry C#Cc1cccc(Oc2ccc(NC(=O)CCl)cc2)c1 , value?
18100 nM

Checklist item: GI50 tested on LOX IMVI melanoma, entry CCCCCCCCCCCCCC(=O)C(C)N (stereo not given) , value?
1880 nM

Further cases:
Checklist item: GI50 tested on LOX IMVI melanoma, entry Nc1ccc2ccc(NS(=O)(=O)N3CCCCC3)cc2c1 , value?
1030 nM
